- System: Staphylococcus aureus
- Assay Comment: Antibacterial activity against Staphylococcus aureus ATCC 29213 measured after 24 hrs by microplate reader analysis
- Type: functional
Reported Property: MIC (µg/mL)
Please state the figure in µg/mL; there is no need to write the unit.

Molecule | Reported Property | Quantity Unit | Experimental Result
CC(C)=CCn1c2ccccc2c2c(OCC(O)CN)cccc21 (configuration not stated) | MIC | µg/mL | 12.5
N=C(N)NCC(O)COc1cccc2[nH]c3ccccc3c12 (configuration not stated) | MIC | µg/mL | 50
CCNCC(O)COc1cccc2c1c1ccccc1n2CC=C(C)C (configuration not stated) | MIC | µg/mL | 6.25
CCCC[N+](C)(CCCC)CC(O)COc1cccc2c1c1ccccc1n2CC=C(C)C.[I-] (configuration not stated) | MIC | µg/mL | 1.56
CC(C)=CCn1c2ccccc2c2c(OCC(O)CNC(=N)N)cccc21 (configuration not stated) | MIC | µg/mL | 1.56

Next up:
# input molecule: CC(C)=CCn1c2ccccc2c2c(OCC(O)CNC(C)C)cccc21 (configuration not stated) ; wanted: its MIC
6.25

====

- Assay Comment: Cytotoxicity against mouse corneal epithelial cells assessed as cell viability at […] ug/ml measured after 24 hrs by CCK8 assay relative to control
- Format: cell-based
- Measurement Conditions: dose 1.56 µg/ml, read-out: Activity
Reported Property: viability at 24 h, 1.56 ug/ml (%)
Write it as a number; the unit % goes unstated.

Quick one: viability at 24 h, 1.56 ug/ml for CC(C)=CCn1c2ccccc2c2c(OCC(O)CNC(=N)N)cccc21 (stereo unspecified) ?
88.3

====

- Assay Comment: Selectivity index, ratio of HC50 for rabbit erythrocytes to MIC for methicillin-resistant Staphylococcus aureus NCTC 10442
- Assay type: toxicity
- Measurement Conditions: read-out: Selectivity Index
Reported Property: selectivity ratio

Which selectivity ratio value belongs to CC(C)=CCn1c2ccccc2c2c(OCC(O)CNC(=N)N)cccc21 (stereo unspecified) ?
> 128

====

- Assay Comment: Cytotoxicity against mouse J774.A1 cells assessed as reduction in cell viability measured after 24 hrs by CCK8 assay
- Assay type: cell-based
Reported Property: CC50 at 24 h (µg/mL)
Provide the reading as a plain figure in µg/mL.

// query CC50 at 24 h value for entry CC(C)=CCn1c2ccccc2c2c(OCC(O)CNC(=N)N)cccc21 (stereo unspecified)
37.2

====

- Assay Comment: Cytotoxicity against mouse corneal epithelial cells assessed as cell viability at 50 ug/ml measured after 24 hrs by CCK8 assay relative to control
- Format: cell-based
- Measurement Conditions: at 50 µg/mL, read-out: Activity
Reported Property: viability at 24 h, 50 ug/ml (%)
The figure you give is taken to be in %; do not add the unit.

State the recorded viability at 24 h, 50 ug/ml for this entry: CC(C)=CCn1c2ccccc2c2c(OCC(O)CNC(=N)N)cccc21 (stereo unspecified)
8.52

====

- Assay Comment: Hemolytic activity in rabbit erythrocytes measured after 1 hr by microplate reader analysis
- Type: ADME, cell-based, Oryctolagus cuniculus, Erythrocyte
Reported Property: HC50 at 1 h

Guide cases for HC50 at 1 h, answers given:
Compound | Experimental Result
CC[N+](C)(CC)CC(O)COc1cccc2c1c1ccccc1n2CC=C(C)C.[I-] (configuration not stated) | 142 µg/mL
CCCCCCCCNCC(O)COc1cccc2c1c1ccccc1n2CC=C(C)C (configuration not stated) | > 200 µg/mL
CN(C)CC(O)COc1cccc2[nH]c3ccccc3c12 (configuration not stated) | > 200 µg/mL
CCN(CC)CC(O)COc1cccc2c1c1ccccc1n2CC=C(C)C (configuration not stated) | 88.7 µg/mL
NCC(O)COc1cccc2[nH]c3ccccc3c12 (configuration not stated) | > 200 µg/mL
CC(C)=CCn1c2ccccc2c2c(OCC(O)CN(C)C)cccc21 (configuration not stated) | 119 µg/mL

Entry under review: CC(C)=CCn1c2ccccc2c2c(OCC(O)CN3CCCC3)cccc21 (configuration not stated) . Reported HC50 at 1 h?
76.2 µg/mL

Also, CC(C)=CCn1c2ccccc2c2c(OCC(O)CN)cccc21 (configuration not stated) please.
> 200 µg/mL

Then what about the compound CN(C)CC(O)COc1cccc2c1c1ccccc1n2C (configuration not stated) ?
> 200 µg/mL

Now give it for CCCCCCCCCn1c2ccccc2c2c(OCC(O)CN(C)C)cccc21 (configuration not stated) too.
128 µg/mL

Same read-out for CCCCCn1c2ccccc2c2c(OCC3CO3)cccc21 (configuration not stated) ?
> 200 µg/mL

Note, next up: CC(C)=CCn1c2ccccc2c2c(OCC3CO3)cccc21 (configuration not stated)
> 200 µg/mL

Can you check CC(C)=CCn1c2ccccc2c2c(OCC(O)CN3CCCCC3)cccc21 (configuration not stated) next?
81.8 µg/mL

Subsequent entry: CCCCCCCn1c2ccccc2c2c(OCC(O)CN(C)C)cccc21 (configuration not stated)
182 µg/mL

Again, but for CC(C)NCC(O)COc1cccc2[nH]c3ccccc3c12 (configuration not stated)
> 200 µg/mL

One more compound: CC(C)=CCn1c2ccccc2c2c(OCC(O)CN3CCSCC3)cccc21 (configuration not stated)
> 200 µg/mL

Also CC(C)=CCn1c2ccccc2c2c(OCC(O)CNC(=O)[C@@H](N)CCCCN)cccc21 (some centres not stated) ?
> 200 µg/mL

Could you do the same for CCCCCCCCCCNCC(O)COc1cccc2c1c1ccccc1n2CC=C(C)C (configuration not stated) , please?
> 200 µg/mL

Item: CCCCN(CCCC)CC(O)COc1cccc2c1c1ccccc1n2CC=C(C)C (configuration not stated)
> 200 µg/mL

Could you do the same for CC(C)=CCn1c2ccccc2c2c(OCC(O)CNC(=O)[C@@H](N)CCCNC(=N)N)cccc21 (some centres not stated) , please?
> 200 µg/mL
